system: AP-1 induced transcriptional activity; assay: Cellular Transrepressional Assay (AP-1 luciferase reporter in A549 cells, PMA activated); assay type: cell-based; conditions: 10 ng/ml PMA, 7 hours, read-out: AP-1 EC50, nM (Cellular Transrepression Assay)
Provide the recorded EC50 for the entries that follow.
// return the numeric value with its unit appended

Request: Entry under review: C[C@@]1(C(=O)Nc2nncs2)Cc2sc(-c3ccc(C(=O)N4CCOCC4)cc3)cc2[C@@H]1c1ccccc1 [Example 18] . Reported EC50?
Result: 27.3 nM

Request: Entry under review: C[C@]1(C(=O)Nc2nncs2)Cc2sc(-c3ccc(C(=O)N4CCOCC4)cc3)cc2[C@H]1c1ccccc1 (racemic) [Example 7] . Reported EC50?
Result: 22.5 nM

Request: Entry under review: C[C@]1(C(=O)Nc2nncs2)Cc2sc(-c3ccc(C(=O)N4CCCC4)cc3)cc2[C@H]1c1ccccc1 [Example 16] . Reported EC50?
Result: 290 nM

Request: Entry under review: C[C@]1(C(=O)Nc2nncs2)Cc2sc(-c3ccc(C(=O)N4CCCC4)cc3)cc2[C@H]1c1ccccc1 (racemic) [Example 8] . Reported EC50?
Result: 42.1 nM

---

tested on: AP-1 induced transcriptional activity; experiment: Cellular Transrepressional Assay (AP-1 luciferase reporter in A549 cells, PMA activated); assay type: cell-based; conditions: Homo sapiens, 10 ng/ml PMA, 7 hours, read-out: AP-1 EC50, nM (Cellular Transrepression Assay)
Value type: EC50 (nM)
Numeric only. Scale: nM

Request: Entry under review: CCN(C)C(=O)c1ccc(-c2cc3c(s2)C[C@](C)(C(=O)Nc2nncs2)[C@@H]3c2ccccc2)cc1 (racemic) . Reported EC50?
Result: 35

Request: Entry under review: C[C@]1(C(=O)Nc2nnc(C(=O)NC3CC3)s2)Cc2sc(-c3ccc(C(=O)N4CCOCC4)cc3)cc2[C@H]1c1ccccc1 . Reported EC50?
Result: 22.8

Request: Entry under review: C[C@]1(C(=O)Nc2nncs2)Cc2sc(-c3ccc(C(=O)N4CCOCC4)cc3)cc2[C@H]1c1cccc(F)c1 (relative stereo) . Reported EC50?
Result: 23.1

---

Tested on: AP-1 induced transcriptional activity
Test: Cellular Transrepressional Assay (AP-1 luciferase reporter in A549 cells, PMA activated)
Format: cell-based
Settings: 10 ng/ml PMA, 7 hours, read-out: AP-1 EC50, nM (Cellular Transrepression Assay)
Protocol: To measure the ability of test molecules to inhibit AP-1 induced transcriptional activity we utilized an A549 cell which was stably transfected with a plasmid containing 7×AP-1 DNA binding sites (pAP-1-Luc plasmid, Stratagene Co. La Jolla, Calif.) followed by the gene for luciferase. […] After a 10 minute incubation of luciferase reagent with cells, luminescence was measured in a TopCount luminescence counter. […] Test molecules were analyzed in the concentration range from 0.1 nM to 40 μM. […]
hey, just use T if measured EC50 is less than 20 nM, otherwise F

Request: Bench note: check whether C[C@]1(C(=O)Nc2nncs2)Cc2sc(-c3ccc(C(=O)N4CCOCC4)cc3)cc2[C@H]1c1ccccc1 [Example 13] shows EC50 below 20 nM
Result: F

Request: Bench note: check whether CN(C)C(=O)c1ccc(-c2cc3c(s2)C[C@](C)(C(=O)Nc2nncs2)[C@@H]3c2ccccc2)cc1 [Example 12] shows EC50 below 20 nM
Result: F

Request: Bench note: check whether CC(C)NC(=O)c1nnc(NC(=O)C2(C)Cc3sc(-c4ccc(C(=O)N5CCOCC5)cc4)cc3C2c2ccccc2)s1 (racemic) [Example 22] shows EC50 below 20 nM
Result: F

Request: Bench note: check whether CCN(C)C(=O)c1ccc(-c2cc3c(s2)C[C@](C)(C(=O)Nc2nncs2)[C@@H]3c2ccccc2)cc1F (racemic) [Example 10] shows EC50 below 20 nM
Result: F

Request: Bench note: check whether CN(C)C(=O)c1ccc(-c2cc3c(s2)C[C@](C)(C(=O)Nc2nncs2)[C@@H]3c2ccccc2)cc1Cl [Example 14] shows EC50 below 20 nM
Result: F

Request: Bench note: check whether CN(C)C(=O)c1ccc(-c2cc3c(s2)C[C@@](C)(C(=O)Nc2nncs2)[C@H]3c2ccccc2)cc1 [Example 19] shows EC50 below 20 nM
Result: F

Request: Bench note: check whether Cc1nnc(NC(=O)C2(C)Cc3sc(-c4ccc(C(=O)N5CCOCC5)cc4)cc3C2c2ccccc2)s1 (racemic) [Example 23] shows EC50 below 20 nM
Result: F

Request: Bench note: check whether CN(C)C(=O)c1ccc(-c2cc3c(s2)C[C@](C)(C(=O)Nc2nncs2)[C@@H]3c2ccccc2)cc1F (racemic) [Example 9] shows EC50 below 20 nM
Result: F

Request: Bench note: check whether CCN(C)C(=O)c1ccc(-c2cc3c(s2)C[C@](C)(C(=O)Nc2nncs2)[C@@H]3c2ccccc2)cc1 [Example 15] shows EC50 below 20 nM
Result: T

Request: Bench note: check whether CN(C)C(=O)c1ccc(-c2cc3c(s2)C[C@](C)(C(=O)Nc2nncs2)[C@@H]3c2ccccc2)cc1 (racemic) [Example 5] shows EC50 below 20 nM
Result: T

Request: Bench note: check whether CN(C)C(=O)c1ccc(-c2cc3c(s2)C[C@](C)(C(=O)Nc2nncs2)[C@@H]3c2ccccc2)cc1Cl (racemic) [Example 6] shows EC50 below 20 nM
Result: F

---

Target: human glucocorticoid receptor (Homo sapiens, UniProt P04150)
Construct: purified human recombinant full-length glucocorticoid receptor (2 nM); purchased Invitrogen Part #2893
Sequence (P04150 1-777): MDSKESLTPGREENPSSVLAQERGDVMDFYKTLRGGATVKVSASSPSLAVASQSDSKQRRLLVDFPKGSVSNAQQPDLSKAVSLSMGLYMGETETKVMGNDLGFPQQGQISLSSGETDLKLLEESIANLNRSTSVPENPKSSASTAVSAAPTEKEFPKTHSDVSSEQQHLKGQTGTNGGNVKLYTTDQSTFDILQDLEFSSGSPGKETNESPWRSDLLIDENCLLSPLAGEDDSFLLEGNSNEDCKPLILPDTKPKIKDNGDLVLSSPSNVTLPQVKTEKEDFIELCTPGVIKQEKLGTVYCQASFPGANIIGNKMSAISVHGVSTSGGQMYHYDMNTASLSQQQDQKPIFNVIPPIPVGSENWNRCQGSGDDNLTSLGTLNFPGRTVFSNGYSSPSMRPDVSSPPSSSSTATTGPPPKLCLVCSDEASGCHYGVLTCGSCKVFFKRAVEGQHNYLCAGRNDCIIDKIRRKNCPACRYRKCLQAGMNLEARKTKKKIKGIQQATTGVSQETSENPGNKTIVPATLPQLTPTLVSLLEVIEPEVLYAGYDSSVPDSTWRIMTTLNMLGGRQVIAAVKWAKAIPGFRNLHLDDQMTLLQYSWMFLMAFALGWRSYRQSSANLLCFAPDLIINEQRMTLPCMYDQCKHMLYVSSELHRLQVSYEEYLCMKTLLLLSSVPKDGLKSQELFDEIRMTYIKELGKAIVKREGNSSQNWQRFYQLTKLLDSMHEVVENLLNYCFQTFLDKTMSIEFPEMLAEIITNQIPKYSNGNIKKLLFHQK
Experiment: Glucocorticoid Receptor Binding Assay (I), fluorescence polarization competitor assay
Conditions: purified human recombinant full-length GR, Fluormone GS Red
Provide the recorded Ki for the entries that follow.
// return the numeric value with its unit appended

Request: Entry under review: C[C@]1(C(=O)Nc2nncs2)Cc2sc(Br)cc2[C@H]1c1ccccc1 . Reported Ki?
Result: 5.34 nM

Request: Entry under review: CCN(C)C(=O)c1ccc(-c2cc3c(s2)CC(C)(C(=O)Nc2nncs2)C3c2ccccc2)cc1Cl (racemic) . Reported Ki?
Result: 1.9 nM

Request: Entry under review: C[C@@]1(C(=O)Nc2nncs2)Cc2sc(Br)cc2[C@@H]1c1ccccc1 . Reported Ki?
Result: 1.8 nM

Request: Entry under review: CC1(C(=O)Nc2nncs2)Cc2sc(Br)cc2C1c1ccccc1 (racemic) . Reported Ki?
Result: 5.3 nM

Sourced from patent US8106046B2
